experiment: AUC in CD-1 mouse at 5 mg/kg, po by LC-MS/MS analysis; type: ADME, organism-based; design: dose 5 mg/kg; settings: in vivo
OUTCOME_MEASURE: AUC (µM·h)

Cc1nc(C)c([C@H](OC(C)(C)C)C(=O)O)c(N2CCC(C)(C)CC2)c1-c1ccc(OCCc2ccc(F)cc2)cc1 :: 24.5

* * *

target: UniProt P05177
Sequence (P05177 whole entry): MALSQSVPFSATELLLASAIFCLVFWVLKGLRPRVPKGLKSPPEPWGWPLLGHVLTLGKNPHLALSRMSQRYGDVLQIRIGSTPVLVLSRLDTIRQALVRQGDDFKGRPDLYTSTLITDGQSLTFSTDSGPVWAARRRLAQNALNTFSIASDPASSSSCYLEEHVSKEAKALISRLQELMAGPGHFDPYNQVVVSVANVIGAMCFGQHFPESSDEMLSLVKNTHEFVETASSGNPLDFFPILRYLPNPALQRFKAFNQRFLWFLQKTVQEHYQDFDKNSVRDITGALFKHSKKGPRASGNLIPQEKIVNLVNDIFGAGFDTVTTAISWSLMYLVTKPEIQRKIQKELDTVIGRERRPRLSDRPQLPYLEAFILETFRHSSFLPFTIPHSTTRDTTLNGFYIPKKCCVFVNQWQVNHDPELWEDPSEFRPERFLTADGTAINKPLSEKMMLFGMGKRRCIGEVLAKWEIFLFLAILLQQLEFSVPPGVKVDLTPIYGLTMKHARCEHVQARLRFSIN
OUTCOME_MEASURE: IC50

Cc1nc(C)c([C@H](OC(C)(C)C)C(=O)O)c(N2CCC(C)(C)CC2)c1-c1ccc(OCCc2ccc(F)cc2)cc1 :: ≥ 24.3 µM

* * *

test: Clearance in CD-1 mouse at 1 mg/kg, iv by LC-MS/MS analysis; assay type: ADME, organism-based; conditions: in vivo
OUTCOME_MEASURE: clearance (mL/min/kg)

Cc1nc(C)c([C@H](OC(C)(C)C)C(=O)O)c(N2CCC(C)(C)CC2)c1-c1ccc(OCCc2ccc(F)cc2)cc1 :: 5.4
